Taken from patent US6949349.

target: T1, recombinant human IGFBP-3 (human, UniProt P17936 28-291)
T1 construct: also called rhIGFBP-3
T1 sequence (P17936 28-291 limits assumed): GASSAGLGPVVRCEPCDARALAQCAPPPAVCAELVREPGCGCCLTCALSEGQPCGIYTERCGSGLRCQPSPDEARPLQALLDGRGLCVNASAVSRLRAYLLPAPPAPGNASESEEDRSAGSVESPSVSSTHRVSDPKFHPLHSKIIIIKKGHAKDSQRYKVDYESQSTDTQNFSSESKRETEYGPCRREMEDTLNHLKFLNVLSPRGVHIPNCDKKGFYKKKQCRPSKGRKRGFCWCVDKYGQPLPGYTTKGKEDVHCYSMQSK
protocol-text: BIAcore competition: peptide dilutions with 20 nM IGFBP-3 over immobilized IGF-II
pIC50: −log10 of the molar value. Positions of bridges follow the written chain, without caps; N, C: chain ends. No end group written: not given here.
experimental-readout: pIC50

{"columns": ["binder", "recorded-value"],
 "data": [
  ["VAWEVCWDRHDQGYICTTDS (disulfide 6-16, Synthetic peptide corresponding to phage clone 4D3.11 (g8) and 3Bi.1 (g3); also called BP14; BP3-4D3.11 (BP14)) [BP3-4D3.11]", 6.00]
]}
